test system: UO-31 renal; test: NCI tumour cell line growth inhibition, 48 h
Give measured GI50 for each item. Keep answers brief.

{"compound": "N#CC1=C(N)OC2=C(COc3ccc(F)cc32)C1c1ccc(Cl)cc1 (centres undefined)", "data-value": "48.5 µM"}
{"compound": "CC(=O)C1CC2(c3ccc(C)cc3)C(c3ccc(C)cc3)=C(c3ccc(C)cc3)C1(c1ccc(C)cc1)S2=O (centres undefined)", "data-value": "> 100 µM"}
{"compound": "C[C@@H]1O[C@@H](O[C@@H]2[C@@H](O)[C@H](OCCc3ccc(O)c(O)c3)O[C@H](COC(=O)/C=C/c3ccc(O)c(O)c3)[C@H]2O)[C@H](O)[C@H](O)[C@H]1O", "data-value": "> 100 µM"}

Now consider a different compound.
Observed GI50, UO-31 renal, Cc1cc(C)c(O)c(CNCCCCCCNCc2cc(C)cc(C)c2O)c1 : 1.42 µM

----------
test system: CAKI-1 renal; assay: NCI tumour cell line growth inhibition, 48 h; in the data active = GI50 below about 0.43 µM; inactive = the rest
Assign a class; possible classes are active, inactive

Answered examples (3):
{"molecule": "C=C1CC[C@@]2(C#N)[C@H]3[C@H](CC[C@@H]2C)[C@@H](C)C[C@@H](CC(C)(C)C#N)[C@H]13", "assigned-class": "inactive"}
{"molecule": "C=C1C[C@@H]2C/C=C/C(=O)C/C(C)=C\\C=C\\C(=O)O[C@H](C=O)C/C(C)=C/[C@H](C1)O2", "assigned-class": "inactive"}
{"molecule": "C/C=C(\\C)C(=O)N[C@H]1[C@@H](OC(C)=O)C[C@]2(C)C3CC[C@@]4(C)C(CC[C@@H]4C(C)N(C)C)C3CCC2[C@H]1O (stereo partly drawn)", "assigned-class": "inactive"}

Query :: So what was the verdict on CCC1=C[C@@H]2CN(C1)Cc1c([nH]c3ccccc13)[C@@](C(=O)OC)(c1cc3c(cc1OC)N(C=O)[C@H]1[C@@](O)(C(=O)OC)[C@H](OC(C)=O)[C@]4(CC)[C@@H]5C[C@@H]5CN5CC[C@]31[C@@H]54)C2 in this test?
Result :: active

----------
tested on: BT-549 breast; assay: NCI tumour cell line growth inhibition, 48 h
Give measured log10 TGI for each item. Keep answers brief.
Heads up, the numbers here are log10 of TGI in µM units.

{"compound": "Nc1nc(Nc2ccc3c(c2)CC[C@@H](N2CCCC2)CC3)nn1-c1cc2c(nn1)-c1ccccc1CCC2", "system": "BT-549 breast", "log10 TGI": 0.53}
{"compound": "O=C(NC1CC1)c1ccc(-c2nc3ccc4[nH]ncc4c3c3c2CCCC3)cc1", "system": "BT-549 breast", "log10 TGI": 0.89}
{"compound": "Cc1cc(C)c(O)c(CNCCCCCCNCc2cc(C)cc(C)c2O)c1", "system": "BT-549 breast", "log10 TGI": 0.74}

Hi there! I need log10 TGI for each item below, if you can.
1. C=C1C(=O)O[C@@H]2C1C[C@@H](O)/C(C)=C/C/C=C(\C)CCC[C@H](C)[C@H]2OC(C)=O (stereo not given in full)
2. CCCCCCCCCNCCCCCCCCC
3. O=c1[nH]nc(Cc2ccccc2)n1/N=C/c1ccc([N+](=O)[O-])o1
4. CC1(C)C2CCC1(C)C(N/C(=C(/C(Cl)=C(Cl)Cl)[N+](=O)[O-])n1nnc3ccccc31)C2 (stereo not given)
5. N#CC(c1nc2ccccc2s1)c1nc(Cl)ncc1Br (stereo not given)
6. COc1ccc2nc(-c3ccccc3)cc(Nc3ccc(C(C)=O)cc3)c2c1

Result ::
1. 1.59
2. 0.53
3. 0.23
4. 1.69
5. 1.91
6. 1.57

----------
system: SK-OV-3 ovarian; test: NCI tumour cell line growth inhibition, 48 h; in the data active = GI50 below about 0.43 µM; inactive = the rest
Assign a class; possible classes are active, inactive

{"compound": "c1ccc(C(=NNc2nc3ccccc3o2)c2ccccn2)nc1", "assigned-class": "active"}
{"compound": "COC(=O)NC/C=C\\c1nc(CC/C=C\\C(=O)OC2CC3CC(=O)O[C@H](/C=C/CC(C)C)C[C@H]4CCC(C)C(C[C@H](OC)CC(C2)O3)O4)co1 (some centres undefined)", "assigned-class": "inactive"}
{"compound": "C/C=C(\\C)C(=O)N[C@H]1[C@@H](OC(C)=O)C[C@]2(C)C3CC[C@@]4(C)C(CC[C@@H]4C(C)N(C)C)C3CCC2[C@H]1O (some centres undefined)", "assigned-class": "inactive"}
{"compound": "CCOC(=O)CCCn1c(SC)nc2cc(-c3ccco3)[nH]c2c1=O", "assigned-class": "inactive"}
{"compound": "COc1ccc(/C=C2\\CN(C(=O)C(Cl)Cl)C/C(=C\\c3ccc(OC)c(OC)c3)C2=O)cc1OC", "assigned-class": "inactive"}
{"compound": "N#CC1=C(N)OC2=C(COc3ccc(F)cc32)C1c1ccc(Cl)cc1 (centres undefined)", "assigned-class": "inactive"}
{"compound": "COC(=O)COc1ccc(/C=C2\\N=C(c3ccccc3)N(c3cc(C(F)(F)F)ccc3Cl)C2=O)cc1", "assigned-class": "inactive"}
{"compound": "CCCCCNC(=O)[C@@H]1CCCN2C(=O)CC[C@H](NC(=O)[C@H](Cc3ccc(OP(=O)(O)O)cc3)NC(C)=O)C(=O)N12", "assigned-class": "inactive"}

Now turn to the next compound.
Query :: So what was the verdict on O=C(c1cc(F)c(Cl)cc1Cl)N1N=C(c2ccccc2)CC1(O)c1ccccc1 (centres undefined) in this test?
Result :: inactive

----------
tested on: OVCAR-8 ovarian; assay: NCI tumour cell line growth inhibition, 48 h
Give measured TGI for each item. Keep answers brief.

Some molecules with recorded TGI:
{"molecule": "NNC(=O)Cc1cccnc1", "data-value": "> 100 µM"}
{"molecule": "COc1ccc(C(=O)C(c2ccc(OC)cc2)C2(O)C(=O)Nc3c(C)cc(Cl)cc32)cc1 (stereo unspecified)", "data-value": "> 100 µM"}
{"molecule": "C[C@]12CC[C@H](O)CC1=CC[C@@H]1C2CC[C@]2(C)c3nn(-c4ccc(F)cc4)nc3CC12 (stereo partly specified)", "data-value": "> 100 µM"}
{"molecule": "COc1ccc(/C=C2\\Sc3nnc(C)n3N=C2c2cc(F)c(Cl)cc2Cl)cc1OC", "data-value": "37.9 µM"}
{"molecule": "Clc1ccc(-n2nnc(C3=NCCCN3)c2-c2ccccc2)cc1", "data-value": "> 100 µM"}
{"molecule": "Cc1cc(C)c(O)c(CNCCCCCCNCc2cc(C)cc(C)c2O)c1", "data-value": "5.01 µM"}
{"molecule": "Cc1ccc(C2(N3CCCC3)OC(C)(C)c3cccc4cccc2c34)cc1 (stereo unspecified)", "data-value": "29.8 µM"}
{"molecule": "CC1(C)OC[C@@H]([C@@]2(CO[Si](C)(C)C(C)(C)C)CC=CC(=O)O2)O1", "data-value": "> 100 µM"}
{"molecule": "N#CC1=C(N)NC(=S)NC12Nc1ccccc1O2 (stereo unspecified)", "data-value": "> 100 µM"}
{"molecule": "COC(=O)C1=C(O)C(C(=O)OC)[C@]2(O)[C@H](C(=O)OC)[C@H]1C[C@@H](c1cccc(OC)c1)[C@H]2C(=O)OC (stereo partly specified)", "data-value": "> 100 µM"}

Hi there! I need TGI for each item below, if you can.
1. CCOC(=O)Cc1csc(/N=C2\NC(=O)/C(=C3\C(=O)N(C)c4ccccc43)S2)n1
2. NCCCC(=O)Nc1ccncc1
3. CCOP(=O)(CC1CC(O)(CNc2cc(Cl)nc(N)n2)C1)OCC (stereo unspecified)
4. CC1(C)C2CCC1(C)C(N/C(=C(/C(Cl)=C(Cl)Cl)[N+](=O)[O-])n1nnc3ccccc31)C2 (stereo unspecified)

Result ::
["> 100 µM", "> 100 µM", "> 100 µM", "> 100 µM"]

----------
Give measured TGI for each item. Keep answers brief.
tested on: HS 578T breast; experiment: NCI tumour cell line growth inhibition, 48 h

Some molecules with recorded TGI:
{"molecule": "COc1ccc(-c2cc(C3CC3)nc(SCC(=O)O)c2C#N)cc1", "data-value": "> 100 µM"}
{"molecule": "C=C1C[C@@H]2C/C=C/C(=O)C/C(C)=C\\C=C\\C(=O)O[C@H](C=O)C/C(C)=C/[C@H](C1)O2", "data-value": "> 65.1 µM"}

Hi there! I need TGI for each item below, if you can.
1. CCOC(=O)Cc1csc(/N=C2\NC(=O)/C(=C3\C(=O)N(C)c4ccccc43)S2)n1
2. Fc1ccc(C2NC(=S)NC3=C2CCOc2c3ccc3ccccc23)cc1 (stereo not given)

Result ::
> 100 µM
> 100 µM

Hi there! I need TGI for each item below, if you can.
1. O=C1c2cc([N+](=O)[O-])cnc2S(=O)(=O)N1c1ccc(Br)cc1
2. O=C1C(Cl)=C(Oc2ccc([N+](=O)[O-])cc2)C(=O)c2c(O)ccc(O)c21
3. Cc1ccc(C(=O)Cc2nc3ncccc3[nH]c2=O)cc1
4. COc1cc(C(=O)O[C@H](C(=O)NCCNC(=O)[C@@H](OC(=O)c2cc(OC)cc3c(C)cccc23)[C@]2(C)CO2)[C@]2(C)CO2)c2cccc(C)c2c1

Result ::
["> 100 µM", "> 100 µM", "71.3 µM", "> 100 µM"]

Hi there! I need TGI for each item below, if you can.
1. CC1(C)COCN1COC1CCCCC1
2. COc1cc(NC(=O)c2cc(OC)c3ccn(C)c3c2)cc2c1C[C@]1(C)CC[C@@H](O)C(C)(C)[C@H]1O2

Result ::
1: > 100 µM; 2: 9.34 µM
